Tested on: HEK293
Test: Cytotoxic Profiling of Annotated Libraries Using Quantitative High-Throughput Screening (AID 1296008); further: nearly all actives have a fitted effect of over 60% in size; further: potency means the concentration at half of the fitted maximal effect
Conditions: Five cell lines viability, CellTiter-Glo ATP luminescence, 48-72 h
Inconclusive results are not listed. Activity calls are given as the source filed them. The call rests on the fitted dose curve; in most records, active means well fitted inhibition curve with a large enough effect; inconclusive means small, poorly fitted or top-dose-only effect; inactive means flat fitted curve, though single readings scatter.
EXPERIMENTAL_READOUT: Potency

// output Potency; input Cc1nc2ccc(-n3ncc(C(=O)c4cc5ccccc5[nH]4)c3N)cc2[nH]1 ; system HEK293
5.8 µM (active)

// output Potency; input CCN1CCN(Cc2ccc(C(=O)Nc3ccc(C)c(Oc4ccc5c(c4)CC(=O)N5)c3)cc2C(F)(F)F)CC1 ; system HEK293
13 µM (active)

// output Potency; input COC1CC(=O)C23C(=O)NC(Cc4c[nH]c5ccccc45)C2C(C)C2(C)OC2C3/C=C/CC(C)CC1O (stereo unspecified) ; system HEK293
7.09 µM (active)

// output Potency; input C#Cc1cccc(Nc2nc3cc(C(=O)O)ccc3c3cncnc23)c1 ; system HEK293
16.4 µM (active)

// output Potency; input COC(=O)N1CCC(n2ncc3c(N4CCOCC4)nc(-c4ccc(NC(=O)NC5CC5)cc4)nc32)CC1 ; system HEK293
0.291 µM (active)

// output Potency; input C=C1C(=O)O[C@@H]2C(OC(=O)/C(C)=C\C)/C(C)=C\C(=O)/C=C(\C)C[C@H](O)[C@@H]12 (stereo partly specified) ; system HEK293
2.55 µM (active)

====

Test system: KB-3-1
Assay: Cytotoxic Profiling of Annotated Libraries Using Quantitative High-Throughput Screening (AID 1296008); further: nearly all actives have a fitted effect of over 60% in size; on max response: on the % scale 0 is the no-effect control and ±100 the full control effect
Conditions: Five cell lines viability, CellTiter-Glo ATP luminescence, 48-72 h; active compounds read low
Records with an inconclusive call do not appear. Active and inactive are the calls of the source. The call rests on the fitted dose curve; in most records, active means well fitted inhibition curve with a large enough effect; inconclusive means small, poorly fitted or top-dose-only effect; inactive means flat fitted curve, though single readings scatter.
EXPERIMENTAL_READOUT: max response

Determine from records and report max response for O=S(=O)(O)Oc1ccc(C(c2ccc(OS(=O)(=O)O)cc2)c2ccccn2)cc1
-0.878% (inactive)

Determine from records and report max response for CC(C)=CCc1cc2c(cc1O)OC[C@H]1c3ccc(O)cc3O[C@@H]21
-5.17% (inactive)

Determine from records and report max response for C=C1C(=C/C=C2\CCC[C@]3(C)[C@@H]([C@H](C)CCCC(C)(C)O)CC[C@@H]23)C[C@@H](O)C[C@@H]1O
4.02% (inactive)

Determine from records and report max response for CC(C)(O)c1ccc2c(c1)ncn2-c1cccc(-c2ccccc2C#N)c1
-0.453% (inactive)

Determine from records and report max response for CCCN1CCC=C(c2cc(-c3ccc(C)cc3)no2)C1
9.64% (inactive)

====

Test: P-glycoprotein substrates identified in KB-8-5-11 adenocarcinoma cell line, qHTS therapeutic library screen (AID 1346987); further: nearly all actives have a fitted effect of over 65% in size
Settings: KB-8-5-11 (P-gp overexpressing) viability, CellTiter-Glo, 72 h; series mostly up to 44.5 µM
Records with an inconclusive call do not appear. Active and inactive are the calls of the source. Calls come from the whole dose curve; as a rule, active = well fitted inhibition curve with a large enough effect; inconclusive = small, poorly fitted or top-dose-only effect; inactive = flat fitted curve, though single readings scatter. Where a SMILES comes first, the peptide text is derived from it. Bridges are numbered along the chain shown (N, C = ends). [ ]: non-standard residue; d: D form. Orn = NCCC[C@H](N)C(=O)O; Mpa = O=C(O)CCS
Write down the outcome that applies. Available outcomes: y = active, n = inactive

Hi, sorry to bother you, what did the test record for COC1CCN(c2cccc(-c3cc(NC(C)=O)nc(-n4nc(C)cc4C)n3)n2)CC1 ?
y

Hi, sorry to bother you, what did the test record for CC(C)(S)C(=O)N[C@@H](CS)C(=O)O ?
n

Hi, sorry to bother you, what did the test record for O=C(Cn1cnnn1)N[C@@H]1C(=O)N2C(C(=O)O)=C(CSc3nncs3)CS[C@H]12 ?
n

Hi, sorry to bother you, what did the test record for CC1=C(C(=O)OC2CCCCC2)C(c2ccc([N+](=O)[O-])cc2)C2=C(CC(C)(C)CC2=O)N1 (stereo unspecified) ?
n

Hi, sorry to bother you, what did the test record for CNC(=O)c1ccc2c(c1)CCO[C@H]2CCN1CCN(c2ccc(OC)cc2)CC1 ?
n

Hi, sorry to bother you, what did the test record for COc1cc2c(cc1OC)CN(C(=O)/C=C/c1c(-c3ccccc3)n(C)c3ncccc13)CC2 ?
y

Hi, sorry to bother you, what did the test record for O=C(NCC(=O)N1CCCC1)Nc1ccc2cnccc2c1 ?
n

Hi, sorry to bother you, what did the test record for C=C1CC[C@@H](O)[C@]2(C)CC[C@H]3C(=C)C(=O)O[C@@H]3[C@@H]12 ?
n

Hi, sorry to bother you, what did the test record for CC(=O)OC1CCC2(C)C(CCC3(C)C2CC=C2C4C(C)C(C)CCC4(C)CCC23C)C1(C)C(=O)O (stereo unspecified) ?
n

Hi, sorry to bother you, what did the test record for O=C(NCCCNC(=O)c1ccc[nH]c1=O)c1cc(-c2ccccc2)on1 ?
n

Hi, sorry to bother you, what did the test record for Cc1ccc(-c2ncccn2)c(C(=O)N2C[C@H](COc3ccc(F)cn3)CC[C@H]2C)c1 ?
n

Hi, sorry to bother you, what did the test record for NCCC(=O)[N-][C@@H](Cc1cnc[nH]1)C(=O)O.[Zn] ?
n

Hi, sorry to bother you, what did the test record for C=CC(=O)N1CCC[C@@H](n2nc(-c3cccc(C(=O)Nc4ccc(C(C)C)c(C)c4)c3)c3c(N)ncnc32)C1 ?
n

Hi, sorry to bother you, what did the test record for CCN(CC)C(=O)C(c1ccccc1)N1CCN(c2ccc(NC(=O)c3ccccc3-c3cccnc3)cc2F)CC1 (stereo unspecified) ?
n

Hi, sorry to bother you, what did the test record for CCC(C)CC(=O)OC1C(=O)C(CO)=CC(O)C1C(C)C (stereo unspecified) ?
y

Hi, sorry to bother you, what did the test record for O=C(Nc1cnc(Cl)nc1)c1ccc(F)c(F)c1 ?
n

Hi, sorry to bother you, what did the test record for Nc1nc(NC2CC2)cc(-c2cccc(Cl)c2Cl)n1 ?
y

Hi, sorry to bother you, what did the test record for CCC(C)C(C(=O)OCC[N+](C)(CC)CC)c1ccccc1 (stereo unspecified) ?
n

Hi, sorry to bother you, what did the test record for C[N+](C)(CCCCCC[N+](C)(C)C1c2ccccc2-c2ccccc21)C1c2ccccc2-c2ccccc21 ?
n

Hi, sorry to bother you, what did the test record for COC1CC(O[C@H]2CC[C@]3(C)C4CC[C@]5(C)C(C6=CC(=O)OC6)=CCC56OC46CC[C@@H]3C2)OC(C)C1O[C@@H]1O[C@H](CO[C@@H]2O[C@H](CO)[C@@H](O)[C@H](O)[C@H]2O)[C@@H](O)[C@H](O)[C@H]1O (stereo partly specified) ?
y

Hi, sorry to bother you, what did the test record for COc1ccc2[nH]c(=O)c3c(c2c1)OC(C)(C)C=C3 ?
n

Hi, sorry to bother you, what did the test record for Cc1ccccc1CNc1ncnc2c1ncn2[C@@H]1O[C@H](CO)[C@@H](O)[C@H]1O ?
n

Hi, sorry to bother you, what did the test record for COc1ccc(OC)c(-c2ccc(NC(=O)c3ccncc3F)cc2)c1 ?
n

Hi, sorry to bother you, what did the test record for O=C(Nc1ccccc1Cl)c1cnc2ccc(C3CCNCC3)cn12 ?
n

Hi, sorry to bother you, what did the test record for Clc1ccc(Nc2nc3ccccc3c3nc(C4CCCCC4)[nH]c23)cc1Cl ?
y

Hi, sorry to bother you, what did the test record for Fc1ccc(-c2nc(-c3ccccc3F)[nH]c2-c2ccncc2)cc1 ?
n

Hi, sorry to bother you, what did the test record for CCCCCCOC(=O)/N=C(\N)c1ccc(NCc2nc3cc(C(=O)N(CCC(=O)OCC)c4ccccn4)ccc3n2C)cc1 ?
n

Hi, sorry to bother you, what did the test record for CCOc1ccc(C[C@H]2NC(=O)CCSSC[C@@H](C(=O)N3CCC[C@H]3C(=O)N[C@@H](CCCN)C(=O)NCC(N)=O)NC(=O)[C@H](CC(N)=O)NC(=O)[C@H]([C@@H](C)O)NC(=O)[C@H]([C@@H](C)CC)NC2=O)cc1 ([Mpa][dY](Et)ITNCP[Orn]G-NH2; disulfide 1-6) ?
n

Hi, sorry to bother you, what did the test record for O=C(O)[C@@H](O)[C@H](O)[C@H](O)[C@@H](O)C(=O)O (tested in a mixture with another compound) ?
n

Hi, sorry to bother you, what did the test record for O=C(O)CC(O)(CC(=O)O)C(=O)O ?
n

Hi, sorry to bother you, what did the test record for CC[C@@H](Nc1c(Nc2cccc(C(=O)N(C)C)c2O)c(=O)c1=O)c1cc(C(C)C)co1 ?
n
